# Test system: C57BL/6 DIO mice
# methodSummary: DIO animal model of NAFLD/NASH in young mice (Example 16)
# Assay type: in vivo
# Set-up: unit not given beside the values
# conditionSet: ad libitum in HFD; Day 82, 2 g/kg glucose PO; ctrl HFD
// Not satisfied strictly below 30000 in OGTT; Satisfied otherwise

Examples from the recorded data:
entrysmiles=CCCC(=O)O[C@H]1OC[C@H](OC(=O)CCC)[C@H](OC(=O)CCC)[C@H]1OC(=O)CCC cat="Not satisfied"
entrysmiles=CCCC(=O)Oc1cc(OC(=O)CCC)c2c(=O)c(OC(=O)CCC)c(-c3ccc(OC(=O)CCC)c(OC(=O)CCC)c3)oc2c1 cat=Satisfied
entrysmiles=CC(=O)Oc1cc(OC(C)=O)c2c(c1)O[C@H](c1cc(OC(C)=O)c(OC(C)=O)c(OC(C)=O)c1)[C@H](OC(=O)c1cc(OC(C)=O)c(OC(C)=O)c(OC(C)=O)c1)C2 cat="Not satisfied"
entrysmiles=CC(=O)Oc1cc(OC(C)=O)c2c(=O)c(OC(C)=O)c(-c3ccc(OC(C)=O)c(OC(C)=O)c3)oc2c1 cat=Satisfied

Consider now this further molecule.
Qu. Reported OGTT at or above 30000? `CC(=O)O[C@H]1OC[C@H](OC(C)=O)[C@H](OC(C)=O)[C@H]1OC(C)=O`
Ans. Not satisfied
